# measurement-target: T1, recombinant human soluble gpNMB (recombinant human gpNMB-FLAG-His) (human, UniProt Q14956 23-498)
# T1 sequence: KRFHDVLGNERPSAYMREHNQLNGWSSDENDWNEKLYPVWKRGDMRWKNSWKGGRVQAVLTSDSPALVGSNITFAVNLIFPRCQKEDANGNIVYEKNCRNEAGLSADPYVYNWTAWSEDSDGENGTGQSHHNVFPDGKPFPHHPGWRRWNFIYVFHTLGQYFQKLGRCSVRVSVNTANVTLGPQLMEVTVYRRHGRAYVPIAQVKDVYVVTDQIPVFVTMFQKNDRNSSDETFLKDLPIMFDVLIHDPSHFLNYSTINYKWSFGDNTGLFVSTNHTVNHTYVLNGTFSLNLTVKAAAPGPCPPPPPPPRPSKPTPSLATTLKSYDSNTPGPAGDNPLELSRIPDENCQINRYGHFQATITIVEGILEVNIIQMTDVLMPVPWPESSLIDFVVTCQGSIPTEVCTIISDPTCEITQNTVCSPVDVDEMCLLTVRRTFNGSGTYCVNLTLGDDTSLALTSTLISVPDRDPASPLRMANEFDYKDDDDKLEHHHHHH
# procedure-text: antigen ELISA, vs hGPN18-2_H2L3
Returns: string. Value is label 1 if measured Relative binding activity is below 1, and label 0 if it is greater than or equal to it.

hGPN18-2_H2L3 VL R59A (antibody, V domains shown) VH: QVQLVQSGPGLVQPTQTLTLTCSFSGFSLSTSVMGVGWIRQPSGKGLEWLADIWWDDDKDYNPSLKSRLTISKDTSKNQVVLTMTNMDTVDTATYYCARTYYSNYEYYGMDYWGQGTLVTVSS VL: DIVMTQSPDSLAVSLGERATINCRSSQTIILSNGNTYLEWYQQKPGQPPKLLIYKVSNAFSGVPDRFSGSGSGTDFTLTISSLQAEDVAVYYCFQGSHVPFTFGSGTKLEIKR | label 0
hGPN18-2_H2L3 VL L31A (antibody, V domains shown) VH: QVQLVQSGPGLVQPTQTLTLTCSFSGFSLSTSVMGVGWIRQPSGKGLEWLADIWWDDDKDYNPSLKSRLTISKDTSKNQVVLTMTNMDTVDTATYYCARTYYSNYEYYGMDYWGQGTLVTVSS VL: DIVMTQSPDSLAVSLGERATINCRSSQTIIASNGNTYLEWYQQKPGQPPKLLIYKVSNRFSGVPDRFSGSGSGTDFTLTISSLQAEDVAVYYCFQGSHVPFTFGSGTKLEIKR | label 1

We now examine a further binder.
Request: Does this binder meet the criterion Relative binding activity < 1? hGPN18-2_H2L3 VL K55A (antibody, V domains shown) VH: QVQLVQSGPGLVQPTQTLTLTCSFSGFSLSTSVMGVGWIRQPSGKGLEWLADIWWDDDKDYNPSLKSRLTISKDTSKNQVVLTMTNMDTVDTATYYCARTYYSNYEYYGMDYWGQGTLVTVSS VL: DIVMTQSPDSLAVSLGERATINCRSSQTIILSNGNTYLEWYQQKPGQPPKLLIYAVSNRFSGVPDRFSGSGSGTDFTLTISSLQAEDVAVYYCFQGSHVPFTFGSGTKLEIKR
Response: label 1
